Test system: MS2 coat protein
Assay: apparent KD of MS2 coat protein; designed switch direction (-1 OFF switch, 1 ON switch): -1; higher = weaker reporter binding
Settings: input ligand: none
Class True: apparent KD of MS2 coat protein at least 20 nM. Class False: apparent KD of MS2 coat protein below 20 nM.

Answered cases to consult:
sequenceCode: GCUGGCUGAGGAUAUCUAUCCAUGAACAUGAGGAUCACCCAUGUAAACGUGGAGUGAGAUAGAGAAGGCGGGCAGA [EX5 A.13] (Eterna round: R97, puzzle: Exclusion 5)
cat: False

sequenceCode: AGCGAGGCAGGAUAUACAUGAGGAUCACCCAUGUACUUGUAUGGCGUGGAACAUCGUGGUAGAAGGGCCGUGCC [EX3 #80] (Eterna round: R97, puzzle: Exclusion 3)
cat: True

sequenceCode: AGUCGGUCAGGAUAUGCAAUUGUGGACAUGAGGAUCACCCAUGUAACGUGGGCUUGGUUUGUAGAAGGGACGUGCA [EX5 #90] (Eterna round: R97, puzzle: Exclusion 5)
cat: True

sequenceCode: CCAGAAUGUGUCAGGAUAUCGGGUACCAAUAGCUUCGAGAAGGGACAUGAGGAUCACCCAUGUUCUCGGAGAGA [Eternabot (L2) Solution 76] (Eterna round: R97, puzzle: Brourd's mod of Exclusion 4)
cat: False

Enquiry: Reported apparent KD of MS2 coat protein reaches at least 20 nM for AGUGGCCGAGGAUAUACAUGAGGAUCACCCAUGUUUUAUGUUGAAACGUUAGCGGCCUGUAGAAGGCGGACCUU [Eternabot (L2) Solution 76] (Eterna round: R97, puzzle: Exclusion 3) ?
Return: False

----------
Listed sequences paired with reported apparent KD of MS2 coat protein
Tested on: MS2 coat protein
Test: apparent KD of MS2 coat protein; higher = weaker reporter binding
Conditions: Eterna round: R107; input ligand: theophylline 2 mM
Write the number in nM without appending the unit.

sequenceCode: ACACAUGACGCGGCCGCCACUGCAACAUGAGGAUCACCCAUGUCACCCAUGUAUGACAUGAGGAUCAGGACCGGGCGUGUGUGGA [Same State Tryptophan B 3]
apparent KD of MS2 coat protein (nM): 580

Enquiry: # get_value(readout= apparent KD of MS2 coat protein, system= MS2 coat protein) for GUAGCGACGGCGGCCGCCACUCGCACGUGAGGGUAGACCAACCUUCACAUGAGGAUCACCCAUGUGAGGACCGGGCUGUCGCUAC [#15 Exclusion Tryptophan B]
Return: 25.4

Enquiry: # get_value(readout= apparent KD of MS2 coat protein, system= MS2 coat protein) for GGGUACAUCGCGGCCGCCACUCAUGUAAAUGCAUGAGGAACACCCAUGCCGAUGGAGACAUCGGAGAGGACCGGGUGAUGUACCG
Return: 148

----------
Test system: MS2 coat protein
Test: apparent KD of MS2 coat protein; designed switch direction (-1 OFF switch, 1 ON switch): -1; higher = weaker reporter binding
Conditions: Eterna round: R95; input ligand: FMN 200 uM
Listed sequences paired with reported apparent KD of MS2 coat protein
Write the number in nM without appending the unit.

The following sequences have reported results that may help.
sequenceCode: ACCUCACAUGAGGAUCACCCAUGUCAGGAUAUACAAGAAAAUAACCGGAAAGACCGGAGUAGAAGGGACAUAAG [Arisus] (puzzle: Exclusion 1)
apparent KD of MS2 coat protein, nM: 30.3
--
sequenceCode: ACAAGCUUUUUGUUCGUCUUAUAAUAUUCUAAGAGGAUAACAUGAGGAUCACCCAUGUAACAAAGACGGACUCAUGU [Sesor Array 14 - Jieux - Sensor v3, turn-off variant 2] (puzzle: Sensor v3, turn-off variant 2)
apparent KD of MS2 coat protein, nM: 13
--
sequenceCode: CUUGUAAAUGUGAGGAUAUACUGUUAGUAAAGUUAGUAGAAGGUACAUGAGGAUCACCCAUGUUAAUUACUCUA [JR_BME4_Sub047] (puzzle: Brourd's mod of Exclusion 4)
apparent KD of MS2 coat protein, nM: 15.9
--
sequenceCode: GGUUGGCGAGGAUAUACAUGAGGAUCACCCAUGUGAGAGAAAAAAGUGAGGACGAAAAGUAGAAGGCGCUGACG [salish99_ex3_r3_032] (puzzle: Exclusion 3)
apparent KD of MS2 coat protein, nM: 223

Enquiry: Fill blank: measured apparent KD of MS2 coat protein of the sequence CAGAAACAUGAGGAUCACCCAUGUGAGGAUAUGAAAAAGAAAAGAAAAGAAAGAAGAAUCAGAAGGCACAAAGG [salish99-ex1_r3_081] (puzzle: Exclusion 1) is ____.
Return: 39.9
